system: HOP-92 NSCLC; assay: NCI-60 one-dose screen, 48 h (100 = growth as untreated, 0 = no growth, -100 = all killed); conditions: 10 µM unless noted
About 83,000 compounds went through this panel and 20% of them were active in at least one assay; those are over-represented in the sample as a whole.
Property Name: growth (%)
One number for each entry, in %.

Here are 2 molecules together with their reported answers.
{"Molecule": "Cc1c(N)ccc(-c2ccc(N)c(C)c2S(=O)(=O)O)c1S(=O)(=O)O", "System Tested": "HOP-92 NSCLC", "Unit Abbrev": "%", "growth": 86.1}
{"Molecule": "COc1ccc(C(=O)c2cc(OC)c(OC)c(OC)c2)cc1/C=C/C(=O)c1ccc(F)cc1", "System Tested": "HOP-92 NSCLC", "Unit Abbrev": "%", "growth": 69.2}

// batch mode: one growth value per listed entry
1. O=C1CC(c2ccc(Cl)cc2)c2ncn(-c3cccc(Cl)c3)c2N1 (stereo not given)
2. Cc1ccccc1N1C(c2ccccc2)=NNC12C=CC(=O)C=C2Cl (stereo not given)

# output
1: 60.8; 2: 114

# input Identify measured growth associated with CC1(C)NC(=O)c2[nH]c3c(Cl)c(Cl)ccc3c2C1C#N (stereo not given)
# output 54.3
